test system: SK-OV-3; experiment: NCI tumour cell line growth inhibition, 48 h
Activity calls are given as the source filed them. No stated cut-off is given here; in the data, active = GI50 up to about 1.1 µM and inactive = higher.
ENDPOINT: GI50

| COMPOUND | EXPERIMENTAL TARGET | ENDPOINT | VALUE MEASURED |
| --- | --- | --- | --- |
| O=C(NC(=S)Nc1ccc([N+](=O)[O-])cc1)c1ccc2c(c1)Sc1ccccc1O2 | SK-OV-3 | GI50 | 77.1 µM (inactive) |
| CCCCCC[C@H]1CC(=O)C2CCCC[C@@]23CC[C@H](CCl)N13.CCCCCC[C@H]1CC(=O)C2CCCC[C@@]23C[C@H](Cl)CN13 (some centres not stated) | SK-OV-3 | GI50 | > 100 µM (inactive) |
| CC(C)Oc1c(N(Cc2ccccc2)c2ccccc2C2SCCCS2)c(=O)c1=O | SK-OV-3 | GI50 | 3.39 µM (inactive) |
| COC1=C[C@]2(CCC(=O)O2)[C@@H]2Cc3ccccc3[C@H](O)[C@@H]2C1=O | SK-OV-3 | GI50 | > 100 µM (inactive) |
| O=S(=O)(O)c1ccc2c(/N=N\c3cccc4ccccc34)c(O)c(S(=O)(=O)O)cc2c1 | SK-OV-3 | GI50 | > 100 µM (inactive) |
| CC(C)=CC1CC(=O)C1(C)Sc1ccccc1 (configuration not stated) | SK-OV-3 | GI50 | > 100 µM (inactive) |
| O=C1CC2OCC=C3CN4CCC56c7ccccc7N1C5C2C3CC46O (configuration not stated) | SK-OV-3 | GI50 | > 100 µM (inactive) |
| O=C(NC(Cc1ccc(I)cc1)C(=O)O)c1ccc(Cl)cc1 (configuration not stated) | SK-OV-3 | GI50 | > 100 µM (inactive) |
| N#C/C(=C\c1ccc(O)c(O)c1)c1c(C#N)c(N)nn1-c1ccccc1 | SK-OV-3 | GI50 | 12.9 µM (inactive) |
| ClC(Cl)(Cl)C1=N[C@H]2[C@H](Br)[C@@H]3O[C@@H](c4ccccc4)[C@H](c4ccccc4)O[C@@H]3[C@H]2O1 | SK-OV-3 | GI50 | 18.5 µM (inactive) |
| Cc1ccc(C2=C(C#N)C(N)OC3=C2COc2ccccc23)cc1 (configuration not stated) | SK-OV-3 | GI50 | 25.9 µM (inactive) |
| CC[C@@]1(O)C(=O)OCc2c1cc1n(c2=O)Cc2cc3c(N)cccc3nc2-1 | SK-OV-3 | GI50 | 0.0157 µM (active) |

* * *

test system: M19-MEL; test: NCI tumour cell line growth inhibition, 48 h
Active and inactive are the calls of the source. No stated cut-off is given here; in the data, active = GI50 up to about 1.1 µM and inactive = higher.
ENDPOINT: GI50

| COMPOUND | VALUE MEASURED |
| --- | --- |
| CCN1C[C@]2(C)CC[C@H](O)C34C1C(C[C@@H]32)[C@@]1(O)CC[C@H]2C[C@@H]4[C@@H]1[C@H]2O | > 100 µM (inactive) |
| CCOc1ccccc1/N=N/c1ccc2oc(=O)c(C(=O)Nc3cccc(C)c3)cc2c1 | 27 µM (inactive) |
| N#CCCN(CCC#N)c1ccc(/C=C2\N=C(COc3ccc(Cl)cc3Cl)OC2=O)cc1 | > 100 µM (inactive) |
| O=C(Nc1cccc(C(F)(F)F)c1)C(=O)C1NC(=S)NC1=O (stereo not given) | > 100 µM (inactive) |
| COc1ccc(C2S/C(=C\c3cccc(O)c3)C(=O)N2NC(=O)Cc2ccccc2)cc1 (stereo not given) | > 100 µM (inactive) |
| Fc1ccccc1C1CC(c2ccc3ccccc3c2)=Nc2ccccc2S1 (stereo not given) | > 100 µM (inactive) |
| C#CCNC(=O)N(CC#C)N=O | > 100 µM (inactive) |
| COc1cc(Nc2cnc3ccc(N)cc3n2)cc(OC)c1OC | > 84.1 µM (inactive) |
| COc1cc2nc(NCCCCCNC(=O)c3ccco3)nc(N)c2cc1OC | 23 µM (inactive) |
| C=C(Br)C(C)(Cl)CCC(Br)C(C)(C)Br (stereo not given) | 34 µM (inactive) |

* * *

test system: NCI-H226; test: NCI tumour cell line growth inhibition, 48 h
The source made the active and inactive calls. Rule as the data show it: active = GI50 up to about 1.1 µM and inactive = higher.
# GI50 per record follows

| COMPOUND | GI50 |
| --- | --- |
| NC(=O)C1Cc2cc3c(cc21)OCO3 (configuration not stated) | > 100 µM (inactive) |
| N#Cc1c(-c2ccccc2)[nH]c2ccccc2c1=O | 41.6 µM (inactive) |
| CO/C(=N\N=C\c1ccc(C(F)(F)F)cc1)c1ccncc1 | > 10 µM (inactive) |
| Cn1c(=O)c(/N=N/c2c(=O)n(C)c(=O)n3c2[nH]c2ccccc23)c2[nH]c3ccccc3n2c1=O | 36.3 µM (inactive) |
| O=C(Nc1c(O)[nH]c(=S)[nH]c1=O)c1ccco1 | > 100 µM (inactive) |
| [O-][S+](Nc1ccccc1)c1ccc(Cl)c(Cl)c1 (configuration not stated) | 51.1 µM (inactive) |
| O/N=C\c1c2c(cc3c1CCC3)CCC2 | > 100 µM (inactive) |
| CC(Cl)(CCC(Cl)C(C)(C)Cl)C(=O)CBr (configuration not stated) | 16.8 µM (inactive) |
| Fc1ccccc1C1CC(c2ccc3ccccc3c2)=Nc2ccccc2S1 (configuration not stated) | > 100 µM (inactive) |
| O=S(=O)(O)c1cc(O)c2c(/N=C\c3ccccc3O)cc(S(=O)(=O)O)cc2c1 | > 100 µM (inactive) |
| CC1(C)OC2CC3COC(=O)C3CC2O1 (configuration not stated) | > 100 µM (inactive) |
| O/N=C1/CCCCC1NO (configuration not stated) | > 100 µM (inactive) |

* * *

tested on: NCI-H460; assay: NCI tumour cell line growth inhibition, 48 h
Calls of active or inactive are those of the source. Rule as the data show it: active = GI50 up to about 1.1 µM and inactive = higher.

| COMPOUND | GI50 |
| --- | --- |
| CN1C[C@H]2[C@@H](C1=O)[C@H](c1ccc([N+](=O)[O-])cc1)ON2C | > 100 µM (inactive) |
| Cc1oc2ccccc2c(=O)c1Cn1nnc2ccccc21 | 43.8 µM (inactive) |
| Cc1cc(O)nc(/N=C(\N)Nc2ccc(Cl)cc2)n1 | > 100 µM (inactive) |
| CS(=O)(=O)N1CC(CI)c2ccc(O)cc21 (stereo not given) | 2.35 µM (inactive) |
| CC(C)[C@H](C)/C=C/[C@@H](C)C1CC[C@H]2[C@@]34C=C[C@]5(C[C@@H](O)CC[C@]5(C)[C@H]3CC[C@]12C)OO4 (stereo not given in full) | 31.8 µM (inactive) |

* * *

system: NCI-H23; assay: NCI tumour cell line growth inhibition, 48 h
Active and inactive are the calls of the source. No stated cut-off is given here; in the data, active = GI50 up to about 1.1 µM and inactive = higher.
Classes used: active, inactive

| COMPOUND | CLASS NAME |
| --- | --- |
| COc1cc(C2S/C(=C/c3ccccc3)C(=O)N2c2cccc(NC(C)=O)c2)cc(OC)c1OC (stereo unspecified) | inactive |
| CCOc1ccc2c(c1)c(CC(=O)O)cn2C | inactive |
| O=C1OC(c2ccccc2)N(C(=O)c2ccccc2)C1Cc1ccc(OCc2ccccc2)cc1 (stereo unspecified) | inactive |
| COc1cccc(C2c3cc4c(cc3OC(C)(N3CCCC3)C2C)OCO4)c1OC (stereo unspecified) | inactive |
| CN(C)c1ccc(/C=C/c2ccnc3ccccc23)cc1N | inactive |
| O/N=C1/CCCCC1NO (stereo unspecified) | inactive |
| O=[N+]([O-])c1ccccc1/C=N/C12CC3CC(CC(C3)C1)C2 | inactive |
| CCOP(=O)(COCCn1nc(Br)c(=O)[nH]c1=O)OCC | inactive |
| OCCSCc1cc2c(O)c(c1)Cc1cc(CSCCO)cc(c1O)Cc1cc(CSCCO)cc(c1O)Cc1cc(CSCCO)cc(c1O)C2 | inactive |
| NC(N)=NCc1ccc2c(c1)OCO2 | inactive |
| COc1ccc(C[C@H]2NC[C@H](OC(C)=O)[C@H]2OC(C)=O)cc1 | active |

* * *

test system: ACHN; experiment: NCI tumour cell line growth inhibition, 48 h
Calls of active or inactive are those of the source. Cut-off read from the data, not from the text of the source: active = GI50 up to about 1.1 µM and inactive = higher.

| COMPOUND | EXPERIMENTAL TARGET | GI50 |
| --- | --- | --- |
| COc1c2ccoc2nc2c(OC)c(OCC(O)C(C)(C)O)ccc12 (configuration not stated) [EVOXINE] | ACHN | > 100 µM (inactive) |
| COC1=CC(=O)N(C(=O)C2CSC(C(CO)NC(=O)c3csc(/C=N/O)n3)=N2)C1 (configuration not stated) | ACHN | > 100 µM (inactive) |
| COC1=C(C)C(=O)c2c(c(COC(N)=O)c3n2CC2C3N2C)C1=O (configuration not stated) | ACHN | < 0.01 µM (active) |
| COc1ccc(C2S/C(=C\c3cccc(O)c3)C(=O)N2NC(=O)Cc2ccccc2)cc1 (configuration not stated) | ACHN | > 100 µM (inactive) |
| CC1=NN(c2ccccc2)C(=O)/C1=C1\SC(c2ccccc2)(c2ccccc2)c2ccccc21 | ACHN | > 100 µM (inactive) |
| Cc1cn(C2CCN(CC3COC(C)(C)O3)O2)c(=O)[nH]c1=O (configuration not stated) | ACHN | > 100 µM (inactive) |
| OCC1CCCCCCCCCCC12SCCCS2 (configuration not stated) | ACHN | > 100 µM (inactive) |
| Nc1ccc2c(=S)c3ccccc3[nH]c2c1 | ACHN | 38.1 µM (inactive) |
| Nc1cccc2nnccc12 | ACHN | > 100 µM (inactive) |
| Cn1c(=O)c(/N=N/c2c(=O)n(C)c(=O)n3c2[nH]c2ccccc23)c2[nH]c3ccccc3n2c1=O | ACHN | 80.9 µM (inactive) |
| c1ccc2c(c1)c1c3c(c4c(n32)=NCCN4)CCC1 | ACHN | 40.9 µM (inactive) |
| CCOC(=O)c1nc2ccc(C(F)(F)F)cc2nc1NCc1ccc(OC)c(OC)c1 | ACHN | 53.1 µM (inactive) |
| CNC(=O)N1CN(c2ccccc2)C2(CCN(CCCC3(c4ccc(F)cc4)OCCO3)CC2)C1=O | ACHN | > 100 µM (inactive) |
| Cc1cn(C(C)OCCN2C(=O)c3ccccc3C2=O)c(=O)[nH]c1=O (configuration not stated) | ACHN | > 100 µM (inactive) |
| CC(C)Oc1c(N(Cc2ccccc2)c2ccccc2C2SCCCS2)c(=O)c1=O | ACHN | 5.81 µM (inactive) |
| Cc1oc2ccccc2c(=O)c1Cn1nnc2ccccc21 | ACHN | 41.6 µM (inactive) |
| Fc1ccccc1C1CC(c2ccc3ccccc3c2)=Nc2ccccc2S1 (configuration not stated) | ACHN | > 100 µM (inactive) |
| O=[N+]([O-])/C(Cl)=C(\Nc1ccccc1)C(Cl)=C(Cl)Cl | ACHN | 29.2 µM (inactive) |
| COC(=O)c1c/c(=N\NC(=O)CC(=O)Nc2ccccc2Cl)c2ccccc2o1 | ACHN | > 100 µM (inactive) |
| O=C1/C(=C/c2ccc(Cl)cc2)N=C(c2ccccc2)N1c1nc2c(Cl)cc(Cl)cc2s1 | ACHN | 31.7 µM (inactive) |
| CCCCCCCCC(=O)N(C)C1C2CN3CCC(O2)C13 (configuration not stated) | ACHN | > 100 µM (inactive) |
| CC(=O)O/N=C/c1ncccc1CO | ACHN | > 100 µM (inactive) |

Values were extracted from ChEMBL document CHEMBL1201862.
